The values you see were collected from paper PMC6424611.

# Tested On: T1, MBP-fused PDZ domain 1 of PARD3B (human, UniProt Q8TEW8 201-289)
# T1 sequence (looked up): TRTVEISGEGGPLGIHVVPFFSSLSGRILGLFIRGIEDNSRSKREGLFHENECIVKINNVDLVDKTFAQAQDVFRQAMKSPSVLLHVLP
# Procedure Summary: fluorescence polarisation
Where no end group is shown, it is not given here.

- Binder: "KLPSTTL (peptide, UniProt Q15418 729-735, looked up, also: fluorescein labeled, site not given here) [fluorescein labeled RSK1 729-735 peptide, unphosphorylated]"
  Readout Units: "µM"
  Kd: 27
- Binder: "KLPSTTL (peptide, UniProt Q15418 729-735, looked up, phosphorylated; fluorescein labeled) [fluorescein labeled RSK1 729-735 peptide, phosphorylated]"
  Readout Units: "µM"
  Kd: 6.8
